Biological target: T1, dephosphorylated Aurora A kinase (Aurora A^122-403) (human, UniProt O14965 122-403)
T1 construct: also called AurA; deP Aurora A^122-403
T1 sequence: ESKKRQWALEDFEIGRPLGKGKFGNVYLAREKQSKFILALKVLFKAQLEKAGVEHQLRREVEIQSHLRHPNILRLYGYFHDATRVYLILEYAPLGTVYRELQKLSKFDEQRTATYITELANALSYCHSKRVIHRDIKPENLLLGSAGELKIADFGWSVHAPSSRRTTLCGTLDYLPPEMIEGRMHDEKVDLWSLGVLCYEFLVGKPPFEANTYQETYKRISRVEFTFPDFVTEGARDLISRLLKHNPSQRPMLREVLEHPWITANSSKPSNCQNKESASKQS
Assay: ITC
value_kind: Kd

Ask: Tell me the measured Kd of MSQVKSSYSYDAPSDFINFSSLDDEGDTQNIDSWFEEKANLENKL (other, also called TPX2 polypeptide) [TPX2] , please.
Result: ~5 µM

Where do these numbers come from? They come from patent US20190038582A1.
